Target: δ-opioid receptors (Rattus norvegicus)
Construct: assayed with a rat brain synaptosomal preparation (P2); from tissue; host or cells: rat brain P2 synaptosomes
Sequence (P33533 whole entry): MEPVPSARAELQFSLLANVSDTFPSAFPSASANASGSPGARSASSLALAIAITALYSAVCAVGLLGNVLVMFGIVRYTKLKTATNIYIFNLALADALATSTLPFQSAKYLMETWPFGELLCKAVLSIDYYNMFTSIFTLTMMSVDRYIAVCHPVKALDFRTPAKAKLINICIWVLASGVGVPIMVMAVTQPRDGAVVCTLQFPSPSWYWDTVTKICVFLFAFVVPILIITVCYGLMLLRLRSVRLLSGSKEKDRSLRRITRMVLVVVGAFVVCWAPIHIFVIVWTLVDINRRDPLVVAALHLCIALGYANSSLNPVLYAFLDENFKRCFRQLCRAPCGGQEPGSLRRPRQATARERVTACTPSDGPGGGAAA
Test: Rat brain synaptosome (P2) binding, agonist [3H]DPDPE (Example 47)
Conditions: from Table II binding
Non-standard residues stand in square brackets, D forms with d. Residues, ends and D or L forms follow the SMILES beside them. *: point of attachment. Dmt = Cc1cc(O)cc(C)c1C[C@H](N)C(=O)O; Tic = O=C(O)[C@@H]1Cc2ccccc2CN1; NHtBu = CC(C)(C)N*; NHNH2 = NN*
MEASURED_QUANTITY: δ/μ selectivity, in words

Cc1cc(O)cc(C)c1C[C@H](N)C(=O)N1Cc2ccccc2C[C@H]1C(=O)NC(C)(C)C [Compound 9, H-Dmt-Tic-NH-tBu] (H-[Dmt]-[Tic]-NHtBu); essentially nonselective
Cc1cc(O)cc(C)c1C[C@H](N)C(=O)N1Cc2ccccc2C[C@H]1C(=O)NN [Compound 6, H-Dmt-Tic-NHNH2] (H-[Dmt]-[Tic]-NHNH2); essentially nonselective
